Form field: viability of PBM cells relative to control (one value per entry).
System: PBM cells
ASSAY_NOTES: Cell viability resazurin assay, PBM cells
Type: cell-based, human
MEASUREMENT_CONDITIONS: 24 h incubation, 100 µM, ± SD
Param answer (str): number followed by unit.

Below are worked cases with known answers.
* O=C1C=CC(=O)[N-]1.[C-]#[O+].[Fe+2].c1cc[cH-]c1.c1ccc(OP(Oc2ccccc2)Oc2ccccc2)cc1 [3b, CpFe(CO)(P(OPh)3)(η^1-N-maleimidato)] | 16.65 ± 0.55%
* CCOP(OCC)OCC.O=C1C=CC(=O)[N-]1.[C-]#[O+].[Fe+2].c1cc[cH-]c1 [3a] | 102.37 ± 3.3%
* O=C1C=CC(=O)[N-]1.[C-]#[O+].[Fe+2].c1cc[cH-]c1.c1coc(P(c2ccco2)c2ccco2)c1 [2b, CpFe(CO)(P(Fu)3)(η^1-N-maleimidato)] | 83.38 ± 3.4%
* O=C1C=CC(=O)[N-]1.[C-]#[O+].[C-]#[O+].[Fe+2].c1cc[cH-]c1 [compound 1, CpFe(CO)2(η^1-N-maleimidato)] | 50.82 ± 1.08%

// lookup viability of PBM cells relative to control | system=PBM cells | key= O=C1C=CC(=O)[N-]1.[C-]#[O+].[Fe+2].c1cc[cH-]c1.c1ccc(P(c2ccccc2)c2ccccc2)cc1 [2a, CpFe(CO)(PPh3)(η^1-N-maleimidato)]
38.14 ± 0.33%
